Entries and their IC50
- system-tested: Mitogen-activated protein kinase 14 (Homo sapiens, UniProt Q16539)
- Sequence (Q16539 whole entry): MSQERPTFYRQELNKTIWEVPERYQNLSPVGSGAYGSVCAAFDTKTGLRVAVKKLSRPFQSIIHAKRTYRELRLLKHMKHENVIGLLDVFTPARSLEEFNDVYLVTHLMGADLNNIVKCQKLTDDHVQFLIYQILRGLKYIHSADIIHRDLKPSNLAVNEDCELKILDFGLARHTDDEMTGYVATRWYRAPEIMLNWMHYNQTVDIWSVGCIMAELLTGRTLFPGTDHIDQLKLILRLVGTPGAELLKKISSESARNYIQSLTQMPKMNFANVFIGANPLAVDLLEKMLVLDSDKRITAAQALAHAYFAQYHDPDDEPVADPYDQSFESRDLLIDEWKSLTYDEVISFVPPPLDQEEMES
- protocol-description: Inhibition of p38 alpha (unknown origin)
Give your result in nM as a bare value.

Illustrative cases are given below, each with its answer.
{"given-smiles": "O=c1[nH]cc(Nc2cccc(F)c2)cc1-c1cccc2[nH]ccc12", "measurement-units": "nM", "IC50": 1400}
{"given-smiles": "O=c1[nH]cc(Nc2ccc(Br)cc2)cc1-c1cccc2[nH]ccc12", "measurement-units": "nM", "IC50": 2400}
{"given-smiles": "Cc1ccccc1Nc1c[nH]c(=O)c(-c2cccc3[nH]ccc23)c1", "measurement-units": "nM", "IC50": 1100}

Fill in the blank: the reported IC50 of `O=c1[nH]cc(Nc2cccc(Br)c2)cc1-c1cccc2[nH]ccc12` is ____.
700

Recorded IC50 of `O=c1[nH]cc(Nc2cccc(O)c2)cc1-c1cccc2[nH]ccc12` , please.
1000

For the molecule shown here, `O=c1[nH]cc(Nc2ccc(F)cc2)cc1-c1cccc2[nH]ccc12` , give the reported IC50.
400

###

- system-tested: Mitogen-activated protein kinase 14 (Homo sapiens, UniProt Q16539)
- protocol-description: Inhibition of p38 alpha (unknown origin) assessed as residual activity at 1 uM relative to control
measurement-type: Activity

Below are worked cases with known answers.
{"given-smiles": "O=c1[nH]cc(Nc2cccc([N+](=O)[O-])c2)cc1-c1cccc2[nH]ccc12", "Activity": "73.9%"}
{"given-smiles": "O=c1[nH]cc(Nc2ccccc2)cc1-c1ccccc1Br", "Activity": "59%"}

Report Activity for `O=c1[nH]cc(Nc2cccc(F)c2)cc1-c1cccc2[nH]ccc12` please.
47%

Reported Activity, compound `CCOC(=O)c1ccccc1Nc1c[nH]c(=O)c(-c2cccc3[nH]ccc23)c1` : ____
104%

// query Activity value for entry `O=c1[nH]cc(Nc2ccccc2F)cc1-c1cccc2[nH]ccc12`
28%

Need Activity of `O=c1[nH]cc(Nc2ccncc2)cc1-c1cccc2[nH]ccc12` , thanks.
67%

Please report the recorded Activity for `COc1ccccc1Nc1c[nH]c(=O)c(-c2cccc3[nH]ccc23)c1` .
50%

Reported Activity for `O=c1[nH]cc(Nc2ccccc2[N+](=O)[O-])cc1-c1cccc2[nH]ccc12` : what is it?
92.3%

What Activity value was documented for this compound, `O=c1[nH]cc(Nc2ccc(F)cc2)cc1-c1cccc2[nH]ccc12` ?
39%

Fill in: Activity of `O=c1[nH]cc(Nc2ccccn2)cc1-c1cccc2[nH]ccc12` is ___
70%

Which Activity reading was recorded for the compound `O=c1[nH]cc(Nc2ccccc2Br)cc1-c1cccc2[nH]ccc12` ?
45%

Endpoint output: Activity of `O=c1[nH]cc(Nc2cccc(O)c2)cc1-c1cccc2[nH]ccc12` . Value?
34%

Which Activity is reported for this compound? `O=c1[nH]cc(Nc2ccc(Br)cc2)cc1-c1cccc2[nH]ccc12`
43%

May I ask what Activity has been recorded for `O=c1[nH]cc(Nc2ccc([N+](=O)[O-])cc2)cc1-c1cccc2[nH]ccc12` ?
93%

I'd like to know its Activity. The compound in question is `CCOC(=O)c1ccc(Nc2c[nH]c(=O)c(-c3cccc4[nH]ccc34)c2)cc1`
86%
